The compounds below have reported IC50 for UniProt:P30530.
Sequence (P30530 26-894): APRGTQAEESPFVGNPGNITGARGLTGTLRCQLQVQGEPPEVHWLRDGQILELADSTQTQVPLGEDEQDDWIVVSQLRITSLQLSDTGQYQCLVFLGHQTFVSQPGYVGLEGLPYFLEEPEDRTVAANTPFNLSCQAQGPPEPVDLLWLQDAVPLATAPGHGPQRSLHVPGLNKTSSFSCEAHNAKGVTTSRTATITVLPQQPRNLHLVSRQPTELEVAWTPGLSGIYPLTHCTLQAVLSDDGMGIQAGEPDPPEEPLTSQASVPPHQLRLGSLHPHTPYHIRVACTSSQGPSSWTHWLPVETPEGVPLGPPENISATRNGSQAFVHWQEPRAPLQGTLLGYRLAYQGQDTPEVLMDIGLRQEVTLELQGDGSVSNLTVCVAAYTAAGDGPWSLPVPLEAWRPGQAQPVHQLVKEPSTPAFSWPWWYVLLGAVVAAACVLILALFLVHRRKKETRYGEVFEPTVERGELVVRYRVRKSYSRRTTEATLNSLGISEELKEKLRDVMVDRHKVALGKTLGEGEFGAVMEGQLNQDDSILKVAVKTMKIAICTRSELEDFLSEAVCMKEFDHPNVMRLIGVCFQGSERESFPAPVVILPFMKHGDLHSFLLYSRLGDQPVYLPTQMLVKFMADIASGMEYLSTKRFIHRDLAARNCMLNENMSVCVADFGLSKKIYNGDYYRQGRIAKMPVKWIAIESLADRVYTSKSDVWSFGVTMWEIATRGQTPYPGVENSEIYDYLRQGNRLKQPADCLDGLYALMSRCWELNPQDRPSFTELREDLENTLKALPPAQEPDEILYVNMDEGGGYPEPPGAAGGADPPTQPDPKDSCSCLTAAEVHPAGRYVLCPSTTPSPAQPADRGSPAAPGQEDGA

# IC50 lookup, item CC(Nc1ncc2c(OC3CCNCC3)ncc([C@H]3CC[C@H](O)CC3)c2n1)c1ccncc1 (stereo partly drawn) [Compound 202]
1000 to 10000 nM

Next compound: COC[C@H](C)Nc1ncc2c(Nc3ccnc(C)c3)ncc([C@H]3CC[C@H](O)CC3)c2n1 [Compound 372]
1000 to 10000 nM

====

The compounds below have reported pIC50 for TYRO3 (Homo sapiens).
pIC50: −log10 of the molar value.

CCOC[C@H](C)Nc1ncc2c(OC3CCOCC3)ncc([C@H]3CC[C@H](O)CC3)c2n1 [Compound 281] :: 6.00 to 7.00

# pIC50 lookup, item CCOc1ncc([C@H]2CC[C@H](O)CC2)c2nc(N[C@@H](C)CC)ncc12 [Compound 235]
≥ 7.00

Next compound: COC[C@H](C)Nc1ncc2c(O[C@@H]3CCN(C)C(C)(C)C3)ncc([C@H]3CC[C@H](O)CC3)c2n1 [Compound 385]
≥ 7.00

====

Biological target: TYRO3 (Homo sapiens, UniProt Q06418)
Sequence (Q06418 41-890): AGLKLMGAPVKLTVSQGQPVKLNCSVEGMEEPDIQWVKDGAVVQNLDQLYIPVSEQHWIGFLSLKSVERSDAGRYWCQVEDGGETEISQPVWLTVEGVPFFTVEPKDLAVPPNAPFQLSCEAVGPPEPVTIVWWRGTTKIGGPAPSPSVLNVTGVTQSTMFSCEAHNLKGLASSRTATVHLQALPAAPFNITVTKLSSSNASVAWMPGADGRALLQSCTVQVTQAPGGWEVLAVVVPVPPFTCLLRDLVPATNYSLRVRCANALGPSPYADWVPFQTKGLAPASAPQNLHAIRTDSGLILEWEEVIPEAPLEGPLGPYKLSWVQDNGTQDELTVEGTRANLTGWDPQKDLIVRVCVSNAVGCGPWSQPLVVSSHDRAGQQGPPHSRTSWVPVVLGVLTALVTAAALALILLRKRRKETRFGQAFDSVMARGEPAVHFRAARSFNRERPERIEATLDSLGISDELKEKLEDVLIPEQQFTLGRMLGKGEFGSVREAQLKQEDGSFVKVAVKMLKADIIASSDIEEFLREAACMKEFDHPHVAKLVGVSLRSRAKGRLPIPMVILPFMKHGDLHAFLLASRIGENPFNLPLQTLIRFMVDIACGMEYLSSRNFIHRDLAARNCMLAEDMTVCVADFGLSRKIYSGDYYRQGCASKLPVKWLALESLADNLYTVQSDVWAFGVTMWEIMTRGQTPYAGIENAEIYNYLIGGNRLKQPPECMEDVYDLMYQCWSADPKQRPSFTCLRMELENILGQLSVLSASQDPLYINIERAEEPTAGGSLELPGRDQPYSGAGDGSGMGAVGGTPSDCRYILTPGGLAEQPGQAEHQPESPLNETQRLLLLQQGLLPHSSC
Readout label: IC50

A selection of reference data follows.
C[C@@H](CC(F)(F)F)Nc1ncc2c(OC3C[C@H]4CC[C@@H](C3)N4C)ncc([C@H]3CC[C@H](O)CC3)c2n1 (some centres unmarked) :: ≤ 100 nM
CC[C@H](C)Nc1ncc2c(OC3C[C@@H](C)O[C@@H](C)C3)ncc([C@H]3CC[C@H](O)CC3)c2n1 (some centres unmarked) [Compound 247] :: 100 to 1000 nM

# IC50 lookup, item CCCC(C)Nc1ncc2c(OC3CCC(F)(F)CC3)ncc([C@H]3CC[C@H](O)CC3)c2n1 (some centres unmarked)
100 to 1000 nM

Next compound: COC[C@H](C)Nc1ncc2c(OC3C[C@H]4CC[C@@H](C3)N4C)ncc([C@H]3CC[C@H](O)CC3)c2n1 (some centres unmarked)
≤ 100 nM

Next compound: CCCC(C)Nc1ncc2c(O[C@@H]3CCCN(C)C3)ncc([C@H]3CC[C@H](O)CC3)c2n1 (some centres unmarked)
≤ 100 nM

Next compound: CCCC(C)Nc1ncc2c(N3CC[C@H](N(C)C)C3)ncc([C@H]3CC[C@H](O)CC3)c2n1 (some centres unmarked)
≤ 100 nM

Next compound: O[C@H]1CC[C@H](c2cnc(OC3CCNCC3)c3cnc(Nc4cccc(F)c4)nc32)CC1
≤ 100 nM

Next compound: CC[C@H](C)Nc1ncc2c(OC3CCN(S(C)(=O)=O)CC3)ncc([C@H]3CC[C@H](O)CC3)c2n1
≤ 100 nM

Next compound: CCCC(C)Nc1ncc2c(N3CC[C@@H](N(C)C)C3)ncc([C@H]3CC[C@H](O)CC3)c2n1 (some centres unmarked)
≤ 100 nM

====

pIC50: −log10 of the molar value. Where a name gives a salt, the structure may show the parent alone.
The compounds below have reported pIC50 for TYRO3 (Homo sapiens, UniProt Q06418).

CCCC(C)Nc1ncc2c(=O)n([C@@H]3CCCN(C)C3)cc([C@H]3CC[C@H](O)CC3)c2n1 (stereo partly drawn) :: ≥ 7.00
C[C@@H](CC(F)(F)F)Nc1ncc2c(O[C@@H]3C[C@H]4CC[C@@H](C3)N4[C@@H]3CCOC3)ncc([C@H]3CC[C@H](O)CC3)c2n1 :: ≥ 7.00
C[C@@H](CC(F)(F)F)Nc1ncc2c(O[C@@H]3C[C@H]4CC[C@@H](C3)N4C3COC3)ncc([C@H]3CC[C@H](O)CC3)c2n1 :: ≥ 7.00
CC(C)Nc1ncc2c(OC3CCOCC3)ncc(-c3cccc(CC#N)c3)c2n1 :: 6.00 to 7.00
CC[C@H](C)Nc1ncc2c(=O)n(C[C@H]3COCCN3C)cc([C@H]3CC[C@H](O)CC3)c2n1 :: 6.00 to 7.00
C[C@@H](CC(F)(F)F)Nc1ncc2c(OC3CCOCC3)ncc([C@H]3CC[C@H](O)CC3)c2n1 :: ≥ 7.00
COC[C@H](C)Nc1ncc2c(OC3CCOCC3)ncc(C3=CCC4(CC3)OCCO4)c2n1 :: 6.00 to 7.00
CCCCNc1ncc2c(OC3CCOCC3)ncc([C@H]3CC[C@H](O)CC3)c2n1 :: ≥ 7.00
C[C@@H](CC(F)(F)F)Nc1ncc2c(OC3CC(C)(C)N(C)C(C)(C)C3)ncc([C@H]3CC[C@H](O)CC3)c2n1 :: ≥ 7.00
CCCC(C)Nc1ncc2c(OC3CCS(=O)(=O)CC3)ncc([C@H]3CC[C@H](O)CC3)c2n1 (stereo partly drawn) :: ≥ 7.00

# pIC50 lookup, item CCCC(C)Nc1ncc2c(O[C@H]3C[C@H](O)C3)ncc([C@H]3CC[C@H](O)CC3)c2n1 (stereo partly drawn)
≥ 7.00

Next compound: C[C@H](CC(F)(F)F)Nc1ncc2c(O[C@H]3C[C@@H](O)C3)ncc([C@H]3CC[C@H](O)CC3)c2n1
≥ 7.00

Next compound: COC[C@H](C)Nc1ncc2c(O[C@H]3C[C@@H](O)C3)ncc([C@H]3CC[C@](C)(O)CC3)c2n1
≥ 7.00

Next compound: CCCC(C)Nc1ncc2c(O[C@H]3C[C@@H](O)C3)ncc([C@H]3CC[C@H](O)CC3)c2n1 (stereo partly drawn)
≥ 7.00

Next compound: CCCCNc1ncc2c(NCc3ccc(F)cc3)ncc([C@H]3CC[C@H](O)CC3)c2n1 [Compound 103, hydrochloride]
≥ 7.00

Next compound: CCCC(C)Nc1ncc2c(OC3CCOCC3)ncc([C@H]3CC[C@@H](N(C)C)CC3)c2n1 (stereo partly drawn)
< 5.00

Next compound: CCCC(C)Nc1ncc2c(N3CCC[C@@H](N(C)C)C3)ncc([C@H]3CC[C@H](O)CC3)c2n1 (stereo partly drawn)
< 5.00

Next compound: COC[C@H](C)Nc1ncc2c(O[C@H]3CCNCC3(F)F)ncc([C@H]3CC[C@H](O)CC3)c2n1
6.00 to 7.00

Next compound: COC[C@@H](C)Nc1ncc2c(OC3CCOCC3)ncc([C@H]3CC[C@H](O)CC3)c2n1
≥ 7.00

Next compound: CC[C@H](C)Nc1ncc2c(OC3CC(C)(C)N(C)C(C)(C)C3)ncc([C@H]3CC[C@H](O)CC3)c2n1
≥ 7.00

Next compound: CCCCNc1cc2c(cn1)c(=O)n(C1CCNCC1)cc2[C@H]1CC[C@H](O)CC1 [Compound 109, hydrochloride]
≥ 7.00

Next compound: CCCC(C)Nc1ncc2c(=O)n(C3CCN(C)CC3)cc([C@H]3CC[C@H](O)CC3)c2n1 (stereo partly drawn)
≥ 7.00

Next compound: CCCC(C)Nc1ncc2c(OC3CCN(CCC(=O)N(C)C)CC3)ncc([C@H]3CC[C@H](O)CC3)c2n1 (stereo partly drawn)
≥ 7.00

Next compound: COC(=O)N[C@H]1C[C@@H](Oc2ncc([C@H]3CC[C@H](O)CC3)c3nc(N[C@@H](C)CC(F)(F)F)ncc23)C1
≥ 7.00

====

Molecular target: FLT3 (Homo sapiens, UniProt P36888)
Sequence (P36888 27-993): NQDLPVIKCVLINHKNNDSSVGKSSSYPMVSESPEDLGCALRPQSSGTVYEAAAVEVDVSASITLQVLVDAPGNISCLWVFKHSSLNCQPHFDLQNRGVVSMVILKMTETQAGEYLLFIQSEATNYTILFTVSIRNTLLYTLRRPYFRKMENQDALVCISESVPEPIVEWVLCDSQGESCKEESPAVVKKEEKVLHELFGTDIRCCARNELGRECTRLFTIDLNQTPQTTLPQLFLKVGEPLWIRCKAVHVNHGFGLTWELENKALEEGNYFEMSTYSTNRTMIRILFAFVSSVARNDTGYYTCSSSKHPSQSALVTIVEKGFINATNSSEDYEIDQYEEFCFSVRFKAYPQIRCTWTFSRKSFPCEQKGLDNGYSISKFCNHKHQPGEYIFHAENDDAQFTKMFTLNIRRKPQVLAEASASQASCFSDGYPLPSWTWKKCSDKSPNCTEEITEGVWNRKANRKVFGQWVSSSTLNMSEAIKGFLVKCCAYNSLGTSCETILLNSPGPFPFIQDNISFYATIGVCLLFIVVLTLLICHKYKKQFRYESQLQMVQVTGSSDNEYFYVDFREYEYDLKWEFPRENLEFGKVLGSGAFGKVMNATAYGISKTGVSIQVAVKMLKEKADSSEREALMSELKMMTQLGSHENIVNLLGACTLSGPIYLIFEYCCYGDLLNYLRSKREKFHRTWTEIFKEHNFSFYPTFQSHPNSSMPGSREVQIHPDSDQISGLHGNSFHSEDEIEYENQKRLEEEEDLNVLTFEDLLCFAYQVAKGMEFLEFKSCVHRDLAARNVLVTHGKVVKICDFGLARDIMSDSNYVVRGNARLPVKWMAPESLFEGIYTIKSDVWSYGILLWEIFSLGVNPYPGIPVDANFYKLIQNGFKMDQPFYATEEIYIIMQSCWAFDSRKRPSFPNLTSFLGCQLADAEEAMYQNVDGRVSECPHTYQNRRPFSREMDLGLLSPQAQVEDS
Assay: TR-FRET kinase activity assay, FLT3
Assay type: biochemical
Conditions: ATP at Km, 60 minutes
Method: IC50 values for compound inhibition of AXL, FLT3, MERTK and TYRO3 activity were determined using a TR-FRET activity assay. […] Activity assays were performed in a 384-well, small volume, black microplates in an active enzyme volume of 10 uL and final developed volume of 20 uL. […] Plates are read in a PHERASTAR® plate reader. Data are analyzed in GraphPad PRISM.
The following compounds are listed with their measured IC50 values.

A selection of reference data follows.
COC[C@H](C)Nc1ncc2c(OC3CCOCC3)ncc(-c3ccc(C#N)cc3)c2n1 :: 1000 to 10000 nM
COCCN1CCC(Oc2ncc([C@H]3CC[C@H](O)CC3)c3nc(N[C@@H](C)CC(F)(F)F)ncc23)CC1 :: 1000 to 10000 nM
COC[C@H](C)Nc1ncc2c(OC3CCOCC3)ncc([C@H]3CC[C@H](NC(C)=O)CC3)c2n1 :: 1000 to 10000 nM
CCc1cccc(Nc2ncc3c(OC4CCNCC4)ncc([C@H]4CC[C@H](O)CC4)c3n2)c1 :: 100 to 1000 nM
COCCN1C(C)(C)CC(Oc2ncc([C@H]3CC[C@H](O)CC3)c3nc(NC4(C)CC4)ncc23)CC1(C)C :: 100 to 1000 nM

Next up:
# IC50 lookup, item CCCCNc1ncc2c(NC3CCOCC3)ncc([C@H]3CC[C@H](O)CC3)c2n1
≤ 100 nM
